FYI, the data here is from patent US20050049294A1.

Tested on: HL-60/MX2 cells
Test: cells
Conditions: read-out: EC50 (nM) HL-60/MX2; Table 17
Readout Name: EC50 (nM)
Field format: number, assumed nM, no unit text.

Sample answers from the record:
>>> print(df.to_string())
                                   molecule           system  readout_name  unit_text  quantitative_result
0  C[C@@]12OC(=O)[C@]1([C@@H](O)[C@@H]1C=CCCC1)NC(=O)[C@@H]2CCBr [Formula II-18]  HL-60/MX2 cells          EC50         nM                   18
1  C[C@@]12OC(=O)[C@]1([C@@H](O)C1CCCCC1)NC(=O)[C@@H]2CCCl [Formula II-2]  HL-60/MX2 cells          EC50         nM                  133

### Prompt Give me measured EC50, please, for this molecule: C[C@@]12OC(=O)[C@]1([C@@H](O)C1CCCCC1)NC(=O)[C@@H]2CCBr [Formula II-4]
### Response 97
